System: HMLE_sh_eGFP viability, CellTiter-Glo luminescence, 72 h
Experiment: cytotoxicity in HMLE control line with eGFP shRNA, dose response, counter-screen for HMLE_sh_ECad selective toxicity project, cell-based, HMLE_sh_eGFP, luminescence (AID 463074);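 further: counterscreen control line to flag general toxicity for the HMLE_sh_ECad screen; potency for loss of viability as luminescence drops below DMSO wells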;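 active means AC50 no more than tenfold above the top dose tested, or full inhibition at every dose with a flat fit (cut at about 19 µM in these data); inconclusive means flat curve fit with inhibition between 30% and 70%, or poor fit; inactive means AC50 more than tenfold above the top dose tested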
Pick from true (1) = active, false (0) = inactive when you respond.

Use these answered entries as a reference point.
molecule	category.label
COc1ccc(-c2[nH]ncc2N=Nc2ccccc2)cc1	true (1)
CC1(C)C=Cc2c(ccc3c2OC[C@@H](c2ccc(O)cc2O)C3)O1	true (1)
C[C@@]12CCC=C[C@H]1[C@H](c1ccc(F)c(/C=C/c3ccccc3)c1)N(Cc1ccccc1)C2=O	true (1)

**Q:** What classification did O=C(Nc1ccccc1)C1=C[C@@H](c2csc3ccccc23)C[C@@H](OCc2ccc(CO)cc2)O1 end up with in this test?
**A:** true (1)

**Q:** Query: recorded result category for O=C(O)c1cccc(N/N=C(\N=Nc2ccccc2)c2ccccc2)c1 in this test
**A:** true (1)

**Q:** So what was the verdict on CCOC(=O)C(=Cc1ccc(OCc2ccc([N+](=O)[O-])cc2)c(OC)c1)C(=O)OCC in this test?
**A:** true (1)

**Q:** Hey, what did the test say about COc1ccc(-c2cc([C@H]3[C@@H]4C=CCC[C@@]4(C)C(=O)N3Cc3ccccc3)ccc2F)cc1 ?
**A:** true (1)

**Q:** Please let me know the test result on file for CCC1CCCCN1S(=O)(=O)c1ccc(S(=O)(=O)N(Cc2ccccn2)CC2CCCO2)cc1 (stereo not given) .
**A:** true (1)

**Q:** Per the assay record, what outcome was assigned to CC(C)(C)[C@@H]1CCC(=O)N(CC[C@H](Sc2ccccc2)c2ccccc2)CC1 ?
**A:** true (1)

**Q:** Dear all, I need the recorded test outcome for COc1ccc(Nc2nc(-c3ccccc3O)nc3ccccc23)cc1 , thank you.
**A:** true (1)

* * *

Tested on: HMLE_sh_eGFP viability, CellTiter-Glo luminescence, 72 h
Experiment: cytotoxicity in HMLE control line with eGFP shRNA, dose response, counter-screen for HMLE_sh_ECad selective toxicity project, cell-based, HMLE_sh_eGFP, luminescence (AID 463074)
Quick reference for AC50 among some compounds

In the examples that follow, each entry is paired with its recorded AC50.
COc1ccc(-c2sc3ccccc3c2C#CC2(O)CCCCC2)cc1 5.38 µM
O=c1c2c3c(sc2ncn1/N=C/c1ccc([N+](=O)[O-])o1)CCCC3 6.48 µM
O=C(O)c1ccc(CSc2nc(-c3ccc(Cl)cc3)cc(C(F)(F)F)n2)cc1 9.94 µM
O=C(NNC1=C(C(=O)C(F)(F)F)CCC1)c1cccc(Cl)c1 3.64 µM

**Q:** Reported AC50, compound COc1cc(OC)cc(-c2sc3ccc(OC)cc3c2C#CCCO)c1 : ____
**A:** 7.93 µM

**Q:** Consider the compound Cn1cccc1/C=C1/C(=O)NC(=S)N(Cc2ccc(F)cc2)C1=O and give its measured AC50.
**A:** 1.7 µM

* * *

Test system: HMLE_sh_eGFP viability, CellTiter-Glo luminescence, 72 h
Assay: cytotoxicity in HMLE control line with eGFP shRNA, dose response, counter-screen for HMLE_sh_ECad selective toxicity project, cell-based, HMLE_sh_eGFP, luminescence (AID 463074);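 further: counterscreen control line to flag general toxicity for the HMLE_sh_ECad screen; potency for loss of viability as luminescence drops below DMSO wells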
Reported AC50 values follow for various compounds

Before answering, review these 4 worked examples.
compound	system.name	endpoint.result
Cc1ccc(OCCN2CCN(c3nc(NCc4ccco4)c4ccccc4n3)CC2)cc1	HMLE_sh_eGFP viability, CellTiter-Glo luminescence, 72 h	4.66 µM
Cc1cc(C(=O)N/N=C/c2cc(Br)cc(Br)c2OC(=O)c2cccc(F)c2)n[nH]1	HMLE_sh_eGFP viability, CellTiter-Glo luminescence, 72 h	3.3 µM
C=CCSC(=C(C#N)C#N)c1cc2c([nH]1)CCCC2	HMLE_sh_eGFP viability, CellTiter-Glo luminescence, 72 h	13.5 µM
O=C(NNc1ccccc1)C(=O)N1CCCCC1	HMLE_sh_eGFP viability, CellTiter-Glo luminescence, 72 h	3.16 µM

**Q:** Entry CCCCNc1c(-c2ccc(SC(C)CC)cc2)nc2ccccn12 (stereo unspecified) has what AC50?
**A:** 4.06 µM

**Q:** What does the record list as AC50 for COc1ccc(N/N=C(/C(C)=O)N2CCCc3ccccc32)cc1 ?
**A:** 13.2 µM

**Q:** Entry CC(=O)Nc1ccc(OCC(O)CN2CCN(c3ccc(C)c(Cl)c3)CC2)cc1 (stereo unspecified) : reported AC50 = ?
**A:** 8.97 µM

**Q:** Which AC50 value belongs to CC(C)C[C@@H](CO)N(Cc1ccccc1)S(=O)(=O)N(Cc1ccccc1)[C@H](CO)CC(C)C ?
**A:** 7.24 µM

**Q:** Fill in the blank: the reported AC50 of CN1CCC(OC(=O)c2cccc(Cl)c2)CC1 is ____.
**A:** 3.33 µM

**Q:** Consider the compound COc1ccc(C(=O)c2ccc(OC)cc2OC)cc1 and give its measured AC50.
**A:** 5.49 µM

**Q:** I have this compound here, O=C/C=C/c1c(-c2ccccc2)cc2oc3ccccc3cc1-2 , and I need its recorded AC50.
**A:** 9.18 µM

**Q:** Which AC50 is reported for this compound? O=C(N/N=C/c1cccc(O)c1)c1ccc(COc2ccccc2Br)cc1
**A:** 6.42 µM

* * *

Tested on: HMLE_sh_eGFP viability, CellTiter-Glo luminescence, 72 h
Assay: cytotoxicity in HMLE control line with eGFP shRNA, dose response, counter-screen for HMLE_sh_ECad selective toxicity project, cell-based, HMLE_sh_eGFP, luminescence (AID 463074);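 further: counterscreen control line to flag general toxicity for the HMLE_sh_ECad screen; potency for loss of viability as luminescence drops below DMSO wells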;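 active = AC50 no more than tenfold above the top dose tested, or full inhibition at every dose with a flat fit (cut at about 19 µM in these data); inconclusive = flat curve fit with inhibition between 30% and 70%, or poor fit; inactive = AC50 more than tenfold above the top dose tested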
Assign a class; possible classes are active, inactive

Solved cases (4 shown):
compound	category.label
CN(/N=C/c1cc(Cl)cc(Cl)c1O)C(=S)NC(C)(C)C	active
CC1(O)CC(c2ccc(Cl)cc2)=NN1C(=O)c1ccc([N+](=O)[O-])cc1 (stereo unspecified)	active
Cc1c(C2(O)CCCCC2)[nH]c2cc(C(F)(F)F)ccc12	active
N#CC1(NC(=O)COC(=O)c2cc(O)c3ccccc3c2O)CCCCC1	active

**Q:** I'd appreciate the recorded outcome for O=c1cc(N2CCCCC2)c(-c2ccccc2)nn1Cc1ccc(Cl)cc1Cl from this test.
**A:** active

* * *

Test system: HMLE_sh_eGFP viability, CellTiter-Glo luminescence, 72 h
Test: cytotoxicity in HMLE control line with eGFP shRNA, dose response, counter-screen for HMLE_sh_ECad selective toxicity project, cell-based, HMLE_sh_eGFP, luminescence (AID 463074);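 further: counterscreen control line to flag general toxicity for the HMLE_sh_ECad screen; potency for loss of viability as luminescence drops below DMSO wells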
Calls of active or inactive are those of the source.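 How the source made its calls: active means AC50 no more than tenfold above the top dose tested, or full inhibition at every dose with a flat fit (cut at about 19 µM in these data); inconclusive means flat curve fit with inhibition between 30% and 70%, or poor fit; inactive means AC50 more than tenfold above the top dose tested.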
# valid calls are active, inactive; nothing else

compound	category.label
COc1cc(N=Nc2ccc3ccccc3c2)ccc1O	active
CCC(c1nnnn1Cc1ccco1)N1CCN(c2cc(Cl)ccc2C)CC1 (stereo not given)	active
OC(COc1ccc2ccccc2c1Br)Cn1cnc(-c2ccccc2)c1 (stereo not given)	active

**Q:** // outcome(item) with item = CCC(O)(CC)C(=O)N/N=C/c1cc(Br)cc(Br)c1O
**A:** active

**Q:** Dear all, I need the recorded test outcome for Cc1cc(OCc2cc(C(=O)N3CCC(Oc4cccnc4)CC3)no2)cc(C)c1Cl , thank you.
**A:** active

**Q:** In this assay, the call recorded for Cc1ccc(CSc2nc3sc(C)c(C)c3c(=O)n2Cc2ccco2)cc1 was what?
**A:** inactive

**Q:** What was the test verdict on Oc1ccc(Nc2nc(-c3ccccc3O)nc3ccccc23)cc1 ?
**A:** active

**Q:** So what was the verdict on O=C(NC(NC(=S)Nc1ccccc1)C(Cl)(Cl)Cl)c1cccc(Cl)c1 (stereo not given) in this test?
**A:** active

**Q:** Look up the recorded call for O=C(CN(c1ccc(Cl)cc1)S(=O)(=O)c1ccc(Cl)c([N+](=O)[O-])c1)NCCc1ccc(F)cc1 in this test.
**A:** active

**Q:** For CS(=O)(=O)c1ccc(C(=O)OCC(=O)NC23CC4CC(CC(C4)C2)C3)cc1[N+](=O)[O-] , which call appears in the assay record?
**A:** active

**Q:** Please share the test call associated with Clc1cccc(CN2CCc3c([nH]c4ccccc34)C2)c1Cl .
**A:** active

**Q:** Field: outcome | Entry: Cc1ccc(C(=O)NC(=C(Cl)Cl)S(=O)(=O)c2ccc(C)cc2)cc1
**A:** active

**Q:** Please state the recorded outcome for this compound: COCCNc1nnc(SC(C)C(=O)Nc2ccc(-c3nc4ccc(C)cc4s3)cc2)s1 (stereo not given)
**A:** active

**Q:** Call for entry N#CCSc1nc2c(c(=O)n1Cc1ccco1)C1(CCCC1)Cc1ccccc1-2 :
**A:** active

**Q:** What classification did CCCCn1c(C2CCCCC2)nc2cc3[nH]c(=O)c(C(C)C)nc3cc21 end up with in this test?
**A:** active

**Q:** Given CCc1ccc2nc(N(CCCN(C)C)C(=O)c3ccc(S(=O)(=O)N4CCCc5ccccc54)cc3)sc2c1 , state the outcome it received in this test.
**A:** active

FYI, the data here is from PubChem BioAssay AID463074.
